# PROTOCOL: in vivo
# EXPERIMENTAL_SETUP: mouse, iv, 0.3 mg/kg
MEASURE: half-life at 24 h (min)
Reply numerically in min, unit not repeated.

Suppose we examine the molecule Cc1nc(N2CCOCC2)ccc1N(CC(C)C)S(=O)(=O)c1ccc2c(c1)C(=O)CC(C1CCOCC1)O2 (stereo unspecified) ; what half-life at 24 h value has been reported?
56.4

====

# PROTOCOL: Lipophilicity, logD of the compound at pH 7.4
# EXPERIMENTAL_SETUP: buffer
Label scheme for logD: lower than 4 is 0, 4 and above is 1.

Check the entry CCc1ccc(NS(=O)(=O)c2ccc3c(c2)C(=O)CC(C2CCOCC2)O3)cc1 (centres undefined) : does logD equal or exceed 4?
0

Check the entry Cc1ccc(N(C2CCC2)S(=O)(=O)c2ccc3c(c2)C(=O)CC(C2CCOCC2)O3)c(C)c1 (centres undefined) : does logD equal or exceed 4?
0

Check the entry CCc1ccc(N(CC(C)C)S(=O)(=O)c2ccc3c(c2)C(F)CC(C2CCOCC2)O3)cc1 (centres undefined) : does logD equal or exceed 4?
1

Check the entry CC(C)CN(c1ccc(N(C)C)cc1)S(=O)(=O)c1ccc2c(c1)C(=O)CC(C1CCOCC1)O2 (centres undefined) : does logD equal or exceed 4?
0

Check the entry `CCc1ccc(N(CC(C)C)S(=O)(=O)c2ccc3cc(OCC4CCOCC4)c(C(=O)OC)cc3c2)cc1` : does logD equal or exceed 4?
1

Check the entry CC(C)CN(c1ccc(F)cc1)S(=O)(=O)c1ccc2c(c1)C(=O)CC(C1CCOCC1)O2 (centres undefined) : does logD equal or exceed 4?
0

Check the entry CCS(=O)(=O)c1ccc(CNS(=O)(=O)c2ccc3c(c2)C(=O)CC(C2CCOCC2)O3)nc1 (centres undefined) : does logD equal or exceed 4?
0

Check the entry CCc1ccc(N(CC(C)C)S(=O)(=O)c2ccc3c(c2)C(=O)CC(CC2CCOCC2)O3)cc1 (centres undefined) : does logD equal or exceed 4?
1

Origin of measurements: ChEMBL document CHEMBL5042513
